- assayTarget: T1, monkey DLL3 on CHO K1-cyno DLL3 cells (cynomolgus monkey)
- T1 construct: also called monkey DLL3 recombinant cell line
- T1 chain: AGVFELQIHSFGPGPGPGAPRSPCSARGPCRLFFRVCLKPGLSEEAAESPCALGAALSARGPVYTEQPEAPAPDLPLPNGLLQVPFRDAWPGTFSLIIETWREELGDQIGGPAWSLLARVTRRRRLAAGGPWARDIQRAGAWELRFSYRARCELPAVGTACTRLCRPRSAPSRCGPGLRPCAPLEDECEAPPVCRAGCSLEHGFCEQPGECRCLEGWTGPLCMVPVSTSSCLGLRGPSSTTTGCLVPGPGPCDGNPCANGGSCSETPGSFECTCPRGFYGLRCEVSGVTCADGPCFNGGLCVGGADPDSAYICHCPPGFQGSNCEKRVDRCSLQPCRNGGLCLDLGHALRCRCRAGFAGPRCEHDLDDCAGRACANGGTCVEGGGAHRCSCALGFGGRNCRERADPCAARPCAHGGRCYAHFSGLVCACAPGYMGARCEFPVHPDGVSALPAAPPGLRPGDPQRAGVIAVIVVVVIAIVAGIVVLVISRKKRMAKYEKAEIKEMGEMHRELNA
- assayExplanation: FACS, CHO K1-cyno DLL3 cells

binder: Hab008L1H2a-hFc (Fc fusion, humanized mab008, VL-linker-VH-human IgG1 Fc; also called Hab008 humanized molecule; not shown: linker; human IgG1 Fc fragment) scFv (part 1 of 2): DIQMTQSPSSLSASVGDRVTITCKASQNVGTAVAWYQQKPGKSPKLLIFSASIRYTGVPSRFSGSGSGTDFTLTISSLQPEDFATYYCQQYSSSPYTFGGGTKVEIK scFv (part 2 of 2): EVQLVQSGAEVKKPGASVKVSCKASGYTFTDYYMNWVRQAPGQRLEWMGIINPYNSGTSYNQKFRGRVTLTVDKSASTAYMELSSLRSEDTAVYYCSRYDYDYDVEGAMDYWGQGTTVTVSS
binding result: binds

binder: Hab008L3H2a-hFc (Fc fusion, humanized mab008, VL-linker-VH-human IgG1 Fc; also called Hab008 humanized molecule; not shown: linker; human IgG1 Fc fragment) scFv (part 1 of 2): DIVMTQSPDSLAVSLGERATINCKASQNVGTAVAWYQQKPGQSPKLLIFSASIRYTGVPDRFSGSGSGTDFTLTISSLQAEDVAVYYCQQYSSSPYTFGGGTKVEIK scFv (part 2 of 2): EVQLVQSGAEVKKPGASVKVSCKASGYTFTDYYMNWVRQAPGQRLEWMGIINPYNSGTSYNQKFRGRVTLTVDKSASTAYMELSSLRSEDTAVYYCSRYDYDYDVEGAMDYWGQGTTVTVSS
binding result: binds

binder: Hab014VL1VH2-hFc (Fc fusion, humanized mab014, VL-linker-VH-human IgG1 Fc; not shown: linker; human IgG1 Fc fragment) scFv (part 1 of 2): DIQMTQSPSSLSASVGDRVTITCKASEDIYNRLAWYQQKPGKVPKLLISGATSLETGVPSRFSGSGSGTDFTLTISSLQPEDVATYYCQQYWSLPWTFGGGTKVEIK scFv (part 2 of 2): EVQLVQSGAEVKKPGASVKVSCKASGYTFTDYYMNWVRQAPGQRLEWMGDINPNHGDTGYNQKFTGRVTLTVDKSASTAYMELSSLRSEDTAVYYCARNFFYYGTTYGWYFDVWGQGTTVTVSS
binding result: binds
